Entry source: patent EP4628104A1

Reported values of Endocytosis EC50, CLDN18.2-overexpressing NIH-3T3 cells for individual entries
- Test target: human CLDN18.2 (human)
- Sequence (chain, as listed by the source limits assumed): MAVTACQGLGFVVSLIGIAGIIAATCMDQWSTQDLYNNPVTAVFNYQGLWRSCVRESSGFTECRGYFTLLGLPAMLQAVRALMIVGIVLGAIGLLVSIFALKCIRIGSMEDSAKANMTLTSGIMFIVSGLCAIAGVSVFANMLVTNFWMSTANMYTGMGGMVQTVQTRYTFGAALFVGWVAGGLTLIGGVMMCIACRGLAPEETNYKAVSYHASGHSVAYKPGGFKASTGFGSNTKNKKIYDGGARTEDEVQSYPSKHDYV
- Assay notes: cell-based or functional assay
Numeric answer only, unit nM assumed.

Worked examples follow.
# Binder, Unit abbrev, Measured value
measured = [
    ("hz28G3-1.3-DDDXd (with DAR of 7.6) (antibody, human IgG1, kappa, DAR 7.6, V domains shown, linker-payload MC-GGFG-DDDXd (compound H) conjugated to cysteines of the reduced inter-chain disulfide bonds; positions not given; linker-payload MC-GGFG-DDDXd (compound H) conjugated to cysteines of the reduced inter-chain disulfide bonds; positions not given; DAR 7.6 for the whole molecule, also called anti-CLDN18.2 antibody-drug conjugate) VH: QVQLVQSGAEVKKPGASVKVSCKTSGYSFTDYLMLWVRQAHGQSLEWMGNINPYYGRTTYALKFKGRVTMTVDRSTSTVYMELSSLRSEDTAVYYCARDGYSLRNAMDYWGQGTLVTVSS VL: DIVMTQSPDSLAVSLGERATINCKSSQSLFNSGNQKNYLAWYQQKPGQPPKLLIYGASTRESGVPDRFSGSGSGTDFTLTISSLQAEDVAVYYCQNAHSYPYTFGQGTKVEIKR", "nM", 1.85),
    ("hz28G3-1.1-DDDXd (with DAR of 7.4) (antibody, human IgG1, kappa, DAR 7.4, V domains shown, linker-payload MC-GGFG-DDDXd (compound H) conjugated to cysteines of the reduced inter-chain disulfide bonds; positions not given; linker-payload MC-GGFG-DDDXd (compound H) conjugated to cysteines of the reduced inter-chain disulfide bonds; positions not given; DAR 7.4 for the whole molecule, also called anti-CLDN18.2 antibody-drug conjugate) VH: QVQLVQSGAEVKKPGASVKVSCKTSGYSFTDYLMLWVRQAPGQGLEWMGNINPYYGRTTYALKFKGRVTMTVDRSTSTVYMELSSLRSEDTAVYYCARDGYSLRNAMDYWGQGTLVTVSS VL: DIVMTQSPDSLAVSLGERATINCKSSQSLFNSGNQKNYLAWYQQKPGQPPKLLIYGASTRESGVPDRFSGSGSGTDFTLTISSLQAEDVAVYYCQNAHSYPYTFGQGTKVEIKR", "nM", 3.69),
    ("humanized antibody hz28G3-1.1 (antibody, human IgG1, kappa, V domains shown, Naked humanized anti-CLDN18.2 antibody, human IgG1 / kappa, expressed in CHO cells) VH: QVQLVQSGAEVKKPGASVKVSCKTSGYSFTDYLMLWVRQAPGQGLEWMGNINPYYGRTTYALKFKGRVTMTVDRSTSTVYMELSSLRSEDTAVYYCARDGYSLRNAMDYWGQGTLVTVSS VL: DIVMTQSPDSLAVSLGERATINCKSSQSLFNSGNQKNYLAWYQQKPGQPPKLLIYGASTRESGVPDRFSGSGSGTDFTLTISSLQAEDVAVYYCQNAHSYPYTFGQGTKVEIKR", "nM", 2.57),
]

What does the record list as Endocytosis EC50, CLDN18.2-overexpressing NIH-3T3 cells for humanized antibody hz28G3-1.3 (antibody, human IgG1, kappa, V domains shown, Naked humanized anti-CLDN18.2 antibody, human IgG1 / kappa, expressed in CHO cells) VH: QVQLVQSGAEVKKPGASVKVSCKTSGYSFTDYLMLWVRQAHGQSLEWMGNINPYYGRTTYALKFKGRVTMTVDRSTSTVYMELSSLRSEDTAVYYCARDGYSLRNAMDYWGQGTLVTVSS VL: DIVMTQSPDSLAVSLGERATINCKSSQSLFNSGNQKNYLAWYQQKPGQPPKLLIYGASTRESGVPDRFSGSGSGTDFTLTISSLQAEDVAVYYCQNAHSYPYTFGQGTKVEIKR ?
4.26
